Reference source: patent US20240116985A1

# testMethodNotes: Solubility in PBS
# Type: physicochemical
# testParameters: Solubility (uM)

>  <molecule>
CC(=O)N1CCC[C@]12CC=CCCCC1(CCCC=CCCCOC(=O)N3CC[C@@](C(=O)N[C@@H](Cc4ccccc4)C(=O)N[C@@H](Cc4csc5ccccc45)C(=O)N[C@@H](CO)C(N)=O)(C3)NC(=O)[C@H]([C@@H](C)O)NC(=O)[C@H](Cc3ccccc3)NC(=O)[C@H](C)NC(=O)[C@H](C)NC(=O)[C@H]([C@@H](C)O)NC(=O)[C@H](CC(=O)O)NC1=O)NC(=O)[C@H](CC(C)(C)C)NC(=O)[C@H](CC(=O)O)NC2=O (some centres unmarked) [I-1263]

>  <Solubility / µM>
12

$$$$
>  <molecule>
CC(=O)N1CCC[C@]12CC=CCCCC1(CCCC=CCCCCCCCC[C@@](C)(C(=O)N[C@@H](Cc3ccccc3Cl)C(=O)N[C@@H](Cc3csc4ccccc34)C(=O)N[C@H](C(N)=O)[C@@H](C)O)NC(=O)[C@H]([C@@H](C)O)NC(=O)[C@H](Cc3ccccc3)NC(=O)[C@H](C)NC(=O)[C@H](C)NC(=O)[C@H](CC(=O)O)NC(=O)[C@H](CC(=O)O)NC1=O)NC(=O)[C@H](CC(C)(C)C)NC(=O)[C@H](CC(=O)O)NC2=O (some centres unmarked) [I-1262]

>  <Solubility / µM>
49

$$$$
>  <molecule>
CC(=O)N1CCC[C@]12CC=CCCCC1(CCCC=CCCCOC(=O)N3CC[C@@](C(=O)N[C@@H](Cc4ccsc4)C(=O)N[C@@H](Cc4csc5ccccc45)C(=O)N[C@H](CO)[C@@H](C)O)(C3)NC(=O)[C@H](CCO)NC(=O)[C@H](Cc3ccccc3)NC(=O)[C@H](C)NC(=O)[C@H](C)NC(=O)[C@H](CC(=O)O)NC(=O)[C@H](CC(=O)O)NC1=O)NC(=O)[C@H](CC(C)(C)C)NC(=O)[C@H](CC(=O)O)NC2=O (some centres unmarked) [I-1305]

>  <Solubility / µM>
49

$$$$
>  <molecule>
CC(=O)N1CCC[C@]12CC=CCCCC1(CCCC=CCCCOC(=O)N3CC[C@@](C(=O)N[C@@H](Cc4ccccc4F)C(=O)N[C@@H](Cc4csc5ccccc45)C(=O)N[C@@H](CO)C(N)=O)(C3)NC(=O)[C@H]([C@@H](C)O)NC(=O)[C@H](Cc3ccccc3)NC(=O)[C@H](C)NC(=O)[C@H](C)NC(=O)[C@H](CC(N)=O)NC(=O)[C@H](CC(=O)O)NC1=O)NC(=O)[C@H](CC(C)(C)C)NC(=O)[C@H](CC(=O)O)NC2=O (some centres unmarked) [I-1024]

>  <Solubility / µM>
14

$$$$
>  <molecule>
CC(=O)N1CCC[C@]12CC=CCCCC1(CCCC=CCCCOC(=O)N3CC[C@@](C(=O)N[C@@H](Cc4ccsc4)C(=O)N[C@@H](Cc4csc5ccccc45)C(=O)N[C@@H](CCC(N)=O)C(=O)N[C@@H](C)C(=O)N[C@@H](C)C(=O)N[C@H](C)C(N)=O)(C3)NC(=O)[C@H](CC(N)=O)NC(=O)[C@H](Cc3ccccc3)NC(=O)[C@H](C)NC(=O)[C@H](C)NC(=O)[C@H](CC(=O)O)NC(=O)[C@H](CC(=O)O)NC1=O)NC(=O)[C@H](CC(C)(C)C)NC(=O)[C@H](CC(=O)O)NC2=O (some centres unmarked) [I-873]

>  <Solubility / µM>
47

$$$$
